- Test system: Streptococcus pneumoniae (IID 553)
- ASSAY REMARKS: In vitro anti-bacterial activity (MIC90), Gram-positive bacteria
- Type: cell-based
- CONDITION: IID553, Gram-positive reference strain
MEASURED PARAMETER: MIC90 (mg/L)

1. C[C@@H]1CN(c2c(F)c(N)c3c(=O)c(C(=O)O)cn(C4CC4)c3c2F)C[C@H](C)N1    0.39
2. CC1COc2c(N3CCN(C)CC3)c(F)cc3c(=O)c(C(=O)O)cn1c23 (stereo not shown)    1.56
3. N[C@@H]1CCCCN(c2c(F)cc3c(=O)c(C(=O)O)cn(C4CC4)c3c2Cl)C1    0.1
4. CC1CCc2c(N3CCC(O)CC3)c(F)cc3c(=O)c(C(=O)O)cn1c23 (stereo not shown)    0.78

These entries and their values trace back to patent US20090082337A1.
